Molecular target: B*27:05, P13750
Experiment: ProImmune REVEAL MHC-peptide binding assay, B*27:05
Recorded REVEAL ® score at 0 h for the following binders
Quick one: just the number, no unit, thanks!

Reference set (3 entries):
> print(dat)
                                  binder           readout.name  observed.result
1  RRGDLPVWL (modifications not checked)  REVEAL ® score at 0 h              145
2  ARGYISTRV (modifications not checked)  REVEAL ® score at 0 h              125
3  FKLTYQNKV (modifications not checked)  REVEAL ® score at 0 h             53.7

In the following, a different binder is considered.
[ask] Which REVEAL ® score at 0 h value is on record for LMCHATFTM (modifications not checked) ?
[reply] 98.2
